These data points were gathered from patent US9932325B2.

target: LRRK2 G2019S enzyme (Homo sapiens (Human), UniProt Q5S007, G2019S); experiment: LRRK2 G2019S TR-FRET biochemical assay (LRRKtide substrate); conditions: 134 μM ATP
Sequence (Q5S007 whole entry G2019S): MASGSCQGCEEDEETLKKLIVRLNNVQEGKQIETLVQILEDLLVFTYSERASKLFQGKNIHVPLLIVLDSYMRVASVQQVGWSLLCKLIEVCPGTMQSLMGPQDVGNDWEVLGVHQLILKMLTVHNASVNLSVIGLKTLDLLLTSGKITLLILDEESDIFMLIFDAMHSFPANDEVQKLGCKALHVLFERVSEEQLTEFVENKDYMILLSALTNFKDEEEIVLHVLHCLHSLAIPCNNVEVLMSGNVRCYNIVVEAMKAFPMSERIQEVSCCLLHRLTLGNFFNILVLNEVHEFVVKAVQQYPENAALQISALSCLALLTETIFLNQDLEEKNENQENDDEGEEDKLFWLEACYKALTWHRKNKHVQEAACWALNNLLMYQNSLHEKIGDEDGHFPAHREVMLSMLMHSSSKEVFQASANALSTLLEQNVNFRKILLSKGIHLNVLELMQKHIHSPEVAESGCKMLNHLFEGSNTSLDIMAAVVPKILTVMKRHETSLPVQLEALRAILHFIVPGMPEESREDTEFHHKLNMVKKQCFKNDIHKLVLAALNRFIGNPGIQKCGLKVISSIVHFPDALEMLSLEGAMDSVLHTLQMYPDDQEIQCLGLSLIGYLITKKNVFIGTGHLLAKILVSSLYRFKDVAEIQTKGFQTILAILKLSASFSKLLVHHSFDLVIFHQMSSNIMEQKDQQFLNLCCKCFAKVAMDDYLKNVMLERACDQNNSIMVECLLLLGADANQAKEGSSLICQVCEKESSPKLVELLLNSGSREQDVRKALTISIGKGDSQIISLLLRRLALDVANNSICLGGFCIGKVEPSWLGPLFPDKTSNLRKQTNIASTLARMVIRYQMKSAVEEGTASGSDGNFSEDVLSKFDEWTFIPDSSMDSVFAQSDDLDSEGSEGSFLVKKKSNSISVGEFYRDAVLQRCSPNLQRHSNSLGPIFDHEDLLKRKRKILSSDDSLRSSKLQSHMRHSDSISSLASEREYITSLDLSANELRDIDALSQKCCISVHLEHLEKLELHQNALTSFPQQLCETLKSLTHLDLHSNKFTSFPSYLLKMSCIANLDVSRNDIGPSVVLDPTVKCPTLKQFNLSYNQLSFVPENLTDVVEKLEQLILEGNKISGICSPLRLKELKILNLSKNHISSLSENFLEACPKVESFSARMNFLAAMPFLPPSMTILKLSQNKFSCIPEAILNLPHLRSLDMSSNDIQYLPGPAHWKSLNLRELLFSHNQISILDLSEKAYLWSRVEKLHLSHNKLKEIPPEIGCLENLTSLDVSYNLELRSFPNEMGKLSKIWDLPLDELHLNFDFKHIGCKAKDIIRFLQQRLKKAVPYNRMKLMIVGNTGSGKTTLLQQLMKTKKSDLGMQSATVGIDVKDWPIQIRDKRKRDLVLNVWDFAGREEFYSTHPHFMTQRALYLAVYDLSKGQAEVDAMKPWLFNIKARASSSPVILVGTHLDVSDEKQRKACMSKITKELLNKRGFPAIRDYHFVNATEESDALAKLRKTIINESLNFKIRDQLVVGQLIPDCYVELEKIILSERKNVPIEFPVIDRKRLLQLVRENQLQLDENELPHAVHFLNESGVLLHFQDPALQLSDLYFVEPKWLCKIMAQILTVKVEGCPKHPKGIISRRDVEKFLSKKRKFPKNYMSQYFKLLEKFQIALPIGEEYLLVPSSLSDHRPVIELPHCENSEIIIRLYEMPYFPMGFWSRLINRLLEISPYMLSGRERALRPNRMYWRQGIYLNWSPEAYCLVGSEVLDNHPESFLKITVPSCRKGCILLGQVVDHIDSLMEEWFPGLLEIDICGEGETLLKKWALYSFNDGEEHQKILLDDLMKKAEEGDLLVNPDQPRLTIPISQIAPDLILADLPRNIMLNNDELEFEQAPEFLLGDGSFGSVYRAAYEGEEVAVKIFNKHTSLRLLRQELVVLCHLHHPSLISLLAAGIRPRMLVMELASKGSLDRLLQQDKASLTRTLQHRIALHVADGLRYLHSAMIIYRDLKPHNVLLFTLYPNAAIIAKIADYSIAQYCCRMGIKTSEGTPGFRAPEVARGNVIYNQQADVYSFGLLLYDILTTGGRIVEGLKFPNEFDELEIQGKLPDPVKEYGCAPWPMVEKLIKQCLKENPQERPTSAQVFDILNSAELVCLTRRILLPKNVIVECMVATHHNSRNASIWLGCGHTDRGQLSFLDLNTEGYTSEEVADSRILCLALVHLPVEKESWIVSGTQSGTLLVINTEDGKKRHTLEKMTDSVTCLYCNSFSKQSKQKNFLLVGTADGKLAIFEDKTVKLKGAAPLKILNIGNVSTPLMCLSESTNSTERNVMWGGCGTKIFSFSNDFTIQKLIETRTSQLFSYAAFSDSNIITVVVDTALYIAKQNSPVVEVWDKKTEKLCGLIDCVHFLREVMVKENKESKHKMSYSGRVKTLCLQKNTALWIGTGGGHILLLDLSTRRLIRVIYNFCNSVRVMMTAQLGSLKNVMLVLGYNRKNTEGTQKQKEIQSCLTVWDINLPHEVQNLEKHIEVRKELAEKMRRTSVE
pIC50: −log10 of the molar value.
Endpoint: pIC50

- Compound: "[2H]C([2H])([2H])n1nc(C2(C)CCOC2=O)cc1Nc1ncc(C(F)(F)F)c(NC)n1 (centres unmarked) [Compound 175]"
  Endpoint: "pIC50"
  Experimental result: "> 7.52"
- Compound: "CCNc1nc(Nc2cc([C@@]3(C)CCOC3=O)nn2C2CC2)ncc1C(F)(F)F"
  Endpoint: "pIC50"
  Experimental result: "> 7.52"
- Compound: "CNc1nc(Nc2cnn(C3C[C@@H]4[C@H](C3)C4(F)F)c2Cl)ncc1C(F)(F)F (some centres unmarked)"
  Endpoint: "pIC50"
  Experimental result: "> 7.52"
- Compound: "CCNc1nc(Nc2cn(C3C[C@@H]3C#N)nc2Cl)ncc1C(F)(F)F (single isomer, unassigned)"
  Endpoint: "pIC50"
  Experimental result: "> 7.52"
- Compound: "CCNc1nc(Nc2cc(C(C)(C)O)nn2C2CC2)ncc1C(F)(F)F"
  Endpoint: "pIC50"
  Experimental result: "> 7.52"
- Compound: "CCNc1nc(Nc2cc(-c3ncoc3C)nn2C2CC2)ncc1C(F)(F)F"
  Endpoint: "pIC50"
  Experimental result: "> 7.52"
- Compound: "CCNc1nc(Nc2cnn3c2CC(n2nccn2)C3)ncc1C(F)(F)F (single isomer, unassigned) [Compound 54B]"
  Endpoint: "pIC50"
  Experimental result: "> 7.52"
- Compound: "CNc1nc(Nc2cnn(C3C[C@@H]4[C@H](C3)C4(F)F)c2C)ncc1C(F)(F)F (some centres unmarked)"
  Endpoint: "pIC50"
  Experimental result: "> 7.52"
- Compound: "N#C[C@@H]1CC1n1cc(Nc2ncc(C(F)(F)F)c(NCC(F)F)n2)c(C2CC2)n1 (single isomer, unassigned) [Compound 211]"
  Endpoint: "pIC50"
  Experimental result: "> 7.52"
- Compound: "CCNc1nc(Nc2cn(C3(C)CCCC3=O)nc2C)ncc1C(F)(F)F (centres unmarked)"
  Endpoint: "pIC50"
  Experimental result: "> 7.52"
- Compound: "CCNc1nc(Nc2cn([C@H]3C[C@H](C#N)C3)nc2C)ncc1C(F)(F)F [Compound 35A]"
  Endpoint: "pIC50"
  Experimental result: "> 7.52"
- Compound: "Cc1nn(C(C)(C)C#N)cc1Nc1ncc(Cl)c(OC2CC2)n1"
  Endpoint: "pIC50"
  Experimental result: "> 7.52"
- Compound: "[2H]C([2H])([2H])N1CCC(n2cc(Nc3ncc(C(F)(F)F)c(NCC)n3)c(C)n2)C1=O (centres unmarked)"
  Endpoint: "pIC50"
  Experimental result: "> 7.52"
- Compound: "CCNc1nc(Nc2cnn(C3CCC3)c2C#N)ncc1C(F)(F)F"
  Endpoint: "pIC50"
  Experimental result: "> 7.52"
- Compound: "CCNc1nc(Nc2cc(C(C)(C)n3nccn3)nn2C(C)C)ncc1C(F)(F)F"
  Endpoint: "pIC50"
  Experimental result: "> 7.52"
- Compound: "CCNc1nc(Nc2cnn(C3CCC3)c2C#N)ncc1Br"
  Endpoint: "pIC50"
  Experimental result: "> 7.52"
- Compound: "CNc1nc(Nc2cn(C(C)(C)C#N)nc2C)ncc1Br"
  Endpoint: "pIC50"
  Experimental result: "> 7.52"
